Data origin: paper PMC9482650

Target: T1, PDZRN3_1, Q9UPQ7
T1 sequence (Q9UPQ7 244-349, limits assumed, looked up): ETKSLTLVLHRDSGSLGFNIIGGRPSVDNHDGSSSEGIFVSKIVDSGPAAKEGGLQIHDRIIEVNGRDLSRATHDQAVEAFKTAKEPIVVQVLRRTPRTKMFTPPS
Assay: holdup assay
Design: key: below the threshold = too weak to quantify, mostly under pKd 3.1 to 4
Settings: plain residues with an end cap or a label only (N-terminal biotin on a linker: ado-ado)
REPORTED METRIC: pKd

- ETQVTAETVI [TMEM225B, P0DP42]: below the threshold
- TKGPRGPTRV [SAPCD1, Q5SSQ6]: 4.03
- TLPRKRMSSI [GPRC6A, Q5T6X5]: below the threshold
- SKSNFGSEPL [KIF17, Q9P2E2]: below the threshold
- GQEEQVTTRL [TRPC5, Q9UL62]: 3.8
- YNNCLEILRV [DCAF7, P61962]: below the threshold
- QKNRKAQEDL [CES3, Q6UWW8]: below the threshold
- YYKRPVQEWV [MMP24, Q9Y5R2]: below the threshold
